Where do the numbers come from? From ChEMBL document CHEMBL1201862.

# Tested on: CAKI-1
# experiment_summary: NCI tumour cell line growth inhibition, 48 h
Activity calls are given as the source filed them. Rule as the data show it: active = GI50 up to about 1.1 µM and inactive = higher. Positions of bridges follow the written chain, without caps; N, C: chain ends. Where a SMILES comes first, the peptide text is derived from it. Non-standard residues stand in square brackets, D forms with d. Residues, ends and D or L forms follow the SMILES beside them. The star is where a group is joined. ξ: configuration not given here. *: point of attachment. X28 = O=C(/C=C/C=C/C=C/C=C/C=C/C(=O)*)NC1=C(O)CCC1=O; Pro(4R-Me) = C[C@H]1CN[C@H](C(=O)O)C1; NMeA = CN[C@@H](C)C(=O)O; ξF = NC(Cc1ccccc1)C(=O)O; Boc = CC(C)(C)OC(=O)*; ξA = CC(N)C(=O)O; tBu = CC(C)(C)*
API: response.call in t for active, f for inactive

Qu. Status in this test for `O=C1[C@@H]2C(c3ccccc3F)=NO[C@@H]2C(=O)N1c1ccc(Cc2ccc(N3C(=O)[C@H]4C(c5ccccc5F)=NO[C@H]4C3=O)cc2)cc1` ?
Ans. f

Qu. # repeat for Cc1nn(C(=O)c2ccncc2)c2c1C(c1ccccc1)SC(=N)N2 (configuration not stated)
Ans. f

Qu. # repeat for CC(O)C(N/C=C1/N=C(c2ccccc2)OC1=O)C(=O)O (configuration not stated)
Ans. f

Qu. # repeat for COC(=O)N/N=C(\C)C(CN1CCCCC1)C(C1=C(O)c2ccccc2OC1)c1ccccc1 (configuration not stated)
Ans. f

Qu. # repeat for `CSc1nc(O)c2cn(Cc3ccccc3)nc2n1`
Ans. f

Others:
Qu. Status in this test for `COc1ccc(/C=N\N(C)Cc2cccc3ccsc23)cc1` ?
Ans. f

Qu. # repeat for COP(=O)(OC)C1=c2c(C)noc2=C2C=COC2C1=O (configuration not stated)
Ans. f

Qu. # repeat for COCOC1CCCC[C@@]1(OCCOCCO[C@@]1(c2ccccc2)CCCC[C@H]1OCOC)c1ccccc1 (some centres not stated)
Ans. f

Qu. # repeat for CC1NC(=O)[C@H](C)N(C)C(=O)[C@@H]2CCCN2C(=O)[C@@H](NC(=O)C(Cc2ccccc2)NC(=O)/C=C/C=C/C=C/C=C/C=C/C(=O)NC2=C(O)CCC2=O)COC(=O)[C@@H]2C[C@@H](C)CN2C1=O (stereo partly drawn) (X28-[ξF]SP[NMeA][ξA][Pro(4R-Me)]; ester 2-C)
Ans. f

Qu. # repeat for CC(OC(C)(C)C)C(NC(=O)C(N)CCCCNC(=O)OC(C)(C)C)C(=O)NC(Cc1ccccc1)C(=O)O (configuration not stated) (H-Lys(Boc)-Thr(tBu)-Phe-OH; configuration not given here)
Ans. f

Qu. # repeat for N#C[C@H]1C(=O)C(c2nc3ccccc3[nH]2)S[C@H]1c1ccccc1 (some centres not stated)
Ans. f

Qu. # repeat for `N#CC(C#N)=Cn1c(=S)[nH]c2ccc([N+](=O)[O-])cc21`
Ans. f

Qu. # repeat for `C=CCOc1ccc(C(=N/NC(=O)c2ccccc2)/N=N/c2ccc([N+](=O)[O-])cc2)cc1OC`
Ans. f

Qu. # repeat for `O=[N+]([O-])c1cccnc1S(=O)(=O)c1ccccc1`
Ans. f

Qu. # repeat for CCCCCCCCCCOCCOCCOCCOCCCCC(O)CCCCCCCC1=C[C@H](C)OC1=O (some centres not stated)
Ans. f

Qu. # repeat for `CC[C@@]1(O)C(=O)OCc2c1cc1n(c2=O)Cc2c-1nc1ccccc1c2/C=N/c1ccccc1N[C@@H]1c2cc3c(cc2[C@@H](c2cc(OC)c(O)c(OC)c2)[C@H]2C(=O)OC[C@@H]21)OCO3`
Ans. t

Qu. # repeat for `CN(O)C(=O)Cc1ccccc1`
Ans. f
